- Species: Rattus norvegicus
- test_protocol: Open TG-GATES - Regimen: Daily Repeat
- Assay type: toxicity, organism-based, Sprague-Dawley
- Design: regimen Daily Repeat, gender Male, age 6 weeks
- condition_notes: in vivo, po, 1000 mg/kg, […], tissue Plasma, route gavage, dose level High, time 28 day
gamma-GTP less than 1 IU/L is 1 (yes); gamma-GTP greater than or equal to 1 IU/L is 0 (no).

Worked cases, answers included:
- compound: "CCOC(=O)CCC(=O)O[C@H]1[C@H](O[C@@H]2[C@@H](C)[C@H](O[C@H]3C[C@@](C)(OC)[C@@H](O)[C@H](C)O3)[C@@H](C)C(=O)O[C@H](CC)[C@@](C)(O)[C@H](O)[C@@H](C)C(=O)[C@H](C)C[C@@]2(C)O)O[C@H](C)C[C@@H]1N(C)C [ERYTHROMYCIN ETHYLSUCCINATE]"
  assigned_label: "0 (no)"
- compound: "CC(C)OC(=O)C(C)(C)Oc1ccc(C(=O)c2ccc(Cl)cc2)cc1 [FENOFIBRATE]"
  assigned_label: "0 (no)"
- compound: "NC(N)=Nc1nc(CSCCC(N)=NS(N)(=O)=O)cs1 [FAMOTIDINE]"
  assigned_label: "0 (no)"
- compound: "COC1=CC(=O)C[C@@H](C)[C@]12Oc1c(Cl)c(OC)cc(OC)c1C2=O [GRISEOFULVIN]"
  assigned_label: "1 (yes)"
- compound: "CCOc1ccc(NC(=O)CC(C)O)cc1 (stereo unspecified) [BUCETIN]"
  assigned_label: "0 (no)"

Req: Is gamma-GTP of COc1ccc2[nH]c([S+]([O-])Cc3ncc(C)c(OC)c3C)nc2c1 (stereo unspecified) [OMEPRAZOLE] strictly below 1 IU/L?
Resp: 0 (no)

###

- Organism: Rattus norvegicus
- test_protocol: Open TG-GATES - Regimen: Daily Repeat
- Assay type: toxicity, organism-based, Sprague-Dawley
- Parameters: regimen Daily Repeat, gender Male, age 6 weeks
- condition_notes: in vivo, po, 0 mg/kg, […], tissue Plasma, route gavage, dose level Control, time 28 day
measurement_type: IP
Field: value (include unit after the number)

Illustrative cases are given below, each with its answer.
- compound: "NC(N)=Nc1nc(CSCCC(N)=NS(N)(=O)=O)cs1 [FAMOTIDINE]"
  measured_result: "6.7 mg/dL"
- compound: "CC(C)OC(=O)C(C)(C)Oc1ccc(C(=O)c2ccc(Cl)cc2)cc1 [FENOFIBRATE]"
  measured_result: "7.1 mg/dL"
- compound: "CCCNC(=O)NS(=O)(=O)c1ccc(Cl)cc1 [CHLORPROPAMIDE]"
  measured_result: "6.5 mg/dL"
- compound: "CC1=C(/C=C/C(C)=C/C=C/C(C)=C/CO)C(C)(C)CCC1 [RETINOL]"
  measured_result: "6.3 mg/dL"
- compound: "COC1=CC(=O)C[C@@H](C)[C@]12Oc1c(Cl)c(OC)cc(OC)c1C2=O [GRISEOFULVIN]"
  measured_result: "7.2 mg/dL"
- compound: "CN(C)CCN(Cc1cccs1)c1ccccn1"
  measured_result: "6 mg/dL"
- compound: "NNC(=O)c1ccncc1 [ISONIAZID]"
  measured_result: "7.2 mg/dL"
- compound: "COc1ccc2[nH]c([S+]([O-])Cc3ncc(C)c(OC)c3C)nc2c1 (configuration not stated) [OMEPRAZOLE]"
  measured_result: "5.8 mg/dL"
- compound: "CCOC(=O)CCC(=O)O[C@H]1[C@H](O[C@@H]2[C@@H](C)[C@H](O[C@H]3C[C@@](C)(OC)[C@@H](O)[C@H](C)O3)[C@@H](C)C(=O)O[C@H](CC)[C@@](C)(O)[C@H](O)[C@@H](C)C(=O)[C@H](C)C[C@@]2(C)O)O[C@H](C)C[C@@H]1N(C)C [ERYTHROMYCIN ETHYLSUCCINATE]"
  measured_result: "6.2 mg/dL"
- compound: "O=C(CCCN1CCC(O)(c2ccc(Cl)cc2)CC1)c1ccc(F)cc1 [HALOPERIDOL]"
  measured_result: "7.8 mg/dL"

Req: State its IP for this compound: CN(C)CCCN1c2ccccc2CCc2ccccc21 [IMIPRAMINE]
Resp: 6.9 mg/dL

Req: State its IP for this compound: CCOc1ccc(NC(=O)CC(C)O)cc1 (configuration not stated) [BUCETIN]
Resp: 5.8 mg/dL
